- System: Nucleic Acid
- method.summary: Induced change in DNA-melting (deltaTm) with [poly(dA-dT)]2 at […]
- Type: functional
Item-by-item account of Tm shift
Provide the reading as a plain figure in °C.

Exercise: Look up Tm shift with Nucleic Acid for this compound: Nc1ccc2c(-c3ccccc3)c3ccc(N)cc3nc2c1
Solution: 20.3

Exercise: Look up Tm shift with Nucleic Acid for this compound: Cc1nc(-c2c3ccccc3nc3ccccc23)sc1CCOC(=O)c1ccc(/N=N/Nc2ccc(C(=O)OCCN(C)C)cc2)cc1
Solution: 1.7

Exercise: Look up Tm shift with Nucleic Acid for this compound: Cc1nc(-c2c3ccccc3nc3ccccc23)sc1CCOC(=O)c1ccc(N/N=N/c2ccc(C(=O)OCCN3CCOCC3)cc2)cc1
Solution: 0.9

Exercise: Look up Tm shift with Nucleic Acid for this compound: Cc1nc(-c2c3ccccc3nc3ccccc23)sc1CCOC(=O)c1ccc(N/N=N/c2ccc(C(=O)OCCN3CCCCC3)cc2)cc1
Solution: 1.9

----------
- Test system: Nucleic Acid
- method.summary: Inhibitory concentration against DNA-bound ethidium for cytotoxicity
- Type: functional
Item-by-item account of log10 CC50
Log10 applied to CC50; unit prior to transform: µM.

{"molecule": "c1ccc2nc3ccccc3cc2c1 [ACRIDINE]", "tested.system": "Nucleic Acid", "log10 CC50": 2.15}
{"molecule": "O=C(OCCN1CCCCC1)c1ccc(/N=N/Nc2ccc(C(=O)OCCN3CCCCC3)cc2)cc1", "tested.system": "Nucleic Acid", "log10 CC50": 0.76}
{"molecule": "Cc1nc(-c2c3ccccc3nc3ccccc23)sc1CCOC(=O)c1ccc(N/N=N/c2ccc(C(=N)N)cc2)cc1", "tested.system": "Nucleic Acid", "log10 CC50": 0.46}

Exercise: Fill in the blank: the reported log10 CC50 of Cc1nc(-c2c3ccccc3nc3ccccc23)sc1CCOC(=O)c1ccc(/N=N/Nc2cccc(C(=O)OCCN(C)C)c2)cc1 is ____.
Solution: 0.08

Exercise: Fill in the blank: the reported log10 CC50 of Cc1nc(-c2c3ccccc3nc3ccccc23)sc1CCOC(=O)c1ccc(N/N=N/c2ccc(C(=O)OCCN3CCOCC3)cc2)cc1 is ____.
Solution: 0.79

Exercise: Fill in the blank: the reported log10 CC50 of c1ccc(-c2c3ccccc3nc3ccccc23)cc1 is ____.
Solution: 2.24

Exercise: Fill in the blank: the reported log10 CC50 of Cc1nc(-c2c3ccccc3nc3ccccc23)sc1CCOC(=O)c1ccc(N)cc1 is ____.
Solution: 2.36

Exercise: Fill in the blank: the reported log10 CC50 of Cc1nc(-c2c3ccccc3nc3ccccc23)sc1CCOC(=O)c1ccc(N/N=N/c2ccc(C(=O)OCCN3CCCC3)cc2)cc1 is ____.
Solution: 0.45

----------
Item-by-item account of Tm shift
- Test system: Nucleic Acid
- method.summary: Induced change in DNA-melting (deltaTm) with [poly(dA-dT)]2 at […]
- Type: functional
Provide the reading as a plain figure in °C.

Study these solved cases before continuing.
{"compound": "Cc1nc(-c2c3ccccc3nc3ccccc23)sc1CCOC(=O)c1ccc(/N=N/Nc2cccc(C(=O)OCCN(C)C)c2)cc1", "Tm shift (°C)": 1.6}
{"compound": "COc1cc(NS(C)(=O)=O)ccc1Nc1c2ccccc2nc2ccccc12 [AMSACRINE]", "Tm shift (°C)": 4}

Let's switch to this compound now.
Exercise: Fill in the blank: the reported Tm shift of Cc1nc(-c2c3ccccc3nc3ccccc23)sc1CCO is ____.
Solution: 0.7

----------
- Tested on: Calf thymus DNA
- method.summary: Inhibitory concentration against ethidium in DNA-binding assay
- Type: nucleic-acid assay
- assay.context: Bos taurus
result.type: Q (µM)
Provide the reading as a plain figure in µM.

Study these solved cases before continuing.
{"structure.notation": "Nc1ccc2cc3ccc(N)cc3nc2c1", "value.unit": "µM", "Q": 20}
{"structure.notation": "Cc1nc(-c2c3ccccc3nc3ccccc23)sc1CCOC(=O)c1ccc(N)cc1", "value.unit": "µM", "Q": 20}
{"structure.notation": "c1ccc(-c2c3ccccc3nc3ccccc23)cc1", "value.unit": "µM", "Q": 22}

Exercise: Look up Q with Calf thymus DNA for this compound: Cc1nc(-c2c3ccccc3nc3ccccc23)sc1CCO
Solution: 21

Exercise: Look up Q with Calf thymus DNA for this compound: Cc1nc(-c2c3ccccc3nc3ccccc23)sc1CCOC(=O)c1ccc(N/N=N/c2ccc(C(N)=O)cc2)cc1
Solution: 26

Exercise: Look up Q with Calf thymus DNA for this compound: CC(=O)c1ccc(N/N=N/c2ccc(C(=O)OCCc3sc(-c4c5ccccc5nc5ccccc45)nc3C)cc2)cc1
Solution: 25

Exercise: Look up Q with Calf thymus DNA for this compound: Cc1nc(-c2c3ccccc3nc3ccccc23)sc1CCOC(=O)c1ccc(/N=N/Nc2cccc(C(=O)OCCN(C)C)c2)cc1
Solution: 17

Exercise: Look up Q with Calf thymus DNA for this compound: Cc1nc(-c2c3ccccc3nc3ccccc23)sc1CCOC(=O)c1ccc(N/N=N/c2ccc(C(=O)OCCN3CCCC3)cc2)cc1
Solution: 26

Exercise: Look up Q with Calf thymus DNA for this compound: O=C(OCCN1CCOCC1)c1ccc(/N=N/Nc2ccc(C(=O)OCCN3CCOCC3)cc2)cc1
Solution: 15

----------
- Test system: Nucleic Acid
- method.summary: Inhibitory concentration against ethidium in DNA-binding assay with [poly(dA-dT)]2 (synthetic oligonucleotide)
- Assay type: nucleic-acid assay
result.type: Q (µM)
Provide the reading as a plain figure in µM.

Study these solved cases before continuing.
{"compound": "Cc1nc(-c2c3ccccc3nc3ccccc23)sc1CCOC(=O)c1ccc(N/N=N/c2ccc(C(=O)OCCN3CCOCC3)cc2)cc1", "Q / µM": 17}
{"compound": "Cc1nc(-c2c3ccccc3nc3ccccc23)sc1CCOC(=O)c1ccc(N/N=N/c2ccc(C(=O)OCCN3CCCC3)cc2)cc1", "Q / µM": 15}
{"compound": "c1ccc(-c2c3ccccc3nc3ccccc23)cc1", "Q / µM": 23}
{"compound": "Cc1nc(-c2c3ccccc3nc3ccccc23)sc1CCOC(=O)c1ccc(N/N=N/c2ccc(C(=O)OCCN3CCCCC3)cc2)cc1", "Q / µM": 14}

Let's switch to this compound now.
Exercise: Fill in the blank: the reported Q of c1ccc2nc3ccccc3cc2c1 [ACRIDINE] is ____.
Solution: 26

----------
Item-by-item account of CC50
- Test system: Nucleic Acid
- method.summary: Inhibitory concentration against DNA-bound ethidium for cytotoxicity
- Type: functional
Provide the reading as a plain figure in µM.

Study these solved cases before continuing.
{"structure.notation": "Cc1nc(-c2c3ccccc3nc3ccccc23)sc1CCOC(=O)c1ccc(N/N=N/c2ccc(C(N)=O)cc2)cc1", "value.unit": "µM", "CC50": 96}
{"structure.notation": "N=C(N)c1ccc(/N=N/Nc2ccc(C(=N)N)cc2)cc1", "value.unit": "µM", "CC50": 4.4}

Exercise: Fill in the blank: the reported CC50 of CC(=O)c1ccc(N/N=N/c2ccc(C(=O)OCCc3sc(-c4c5ccccc5nc5ccccc45)nc3C)cc2)cc1 is ____.
Solution: 123
